Reported mean nematode size ln(EXT) (ln) values for a set of molecules
System: Caenorhabditis elegans N2
Experiment: mean nematode size ln(EXT) after 48 h, plate-adjusted (DMSO control set to 6) (ln(EXT), control-adjusted); higher = larger nematodes / less growth inhibition
Settings: 50 µM; exposure time 48 h

- MOLECULE: "O=C1O[C@H]([C@@H](O)CO)C([O-])=C1O.[Na+] [(+)-Sodium L-ascorbate]"
  mean nematode size ln(EXT) (ln): 5.29
- MOLECULE: "CC(C)Oc1cc(-n2nc(C(C)(C)C)oc2=O)c(Cl)cc1Cl"
  mean nematode size ln(EXT) (ln): 6.05
- MOLECULE: "COCCOC[C@H](CC1(C(=O)N[C@H]2CC[C@@H](C(=O)O)CC2)CCCC1)C(=O)Oc1ccc2c(c1)CCC2"
  mean nematode size ln(EXT) (ln): 5.91
- MOLECULE: "Oc1ccc(O)cc1 [Hydroquinone]"
  mean nematode size ln(EXT) (ln): 6.1
- MOLECULE: "CCCc1cc(=O)[nH]c(=S)[nH]1"
  mean nematode size ln(EXT) (ln): 5.8
- MOLECULE: "Cc1ccn2nc(S(=O)(=O)Nc3c(F)cccc3F)nc2n1"
  mean nematode size ln(EXT) (ln): 5.93
- MOLECULE: "CCCCCCCCCCCCc1cccc(S(=O)(=O)O)c1 [Triethanolamine dodecylbenzene sulfonate]"
  mean nematode size ln(EXT) (ln): 5.03
- MOLECULE: "CCN(CC)c1ccccc1"
  mean nematode size ln(EXT) (ln): 5.98
- MOLECULE: "CN(C)c1ccc(Cc2ccc(N(C)C)cc2)cc1"
  mean nematode size ln(EXT) (ln): 5.74
- MOLECULE: "CC(C)OC(=O)Nc1cccc(Cl)c1"
  mean nematode size ln(EXT) (ln): 5.82
- MOLECULE: "COc1cc(-c2nc(NC(=O)c3cc4cc(C)cc(C)c4n3CC(=O)O)sc2CCC2CCCCC2)c(OC)cc1Cl"
  mean nematode size ln(EXT) (ln): 5.92
- MOLECULE: "COP(=O)(OC)OC(Br)C(Cl)(Cl)Br (centres undefined)"
  mean nematode size ln(EXT) (ln): 4.87
- MOLECULE: "FC(F)(F)C(F)(F)C(F)(F)C(F)(F)C(F)(F)C(F)(F)CCI [1H,1H,2H,2H-Perfluorooctyl iodide]"
  mean nematode size ln(EXT) (ln): 5.94
- MOLECULE: "Cc1ccc(C(C)(C)C)c(O)c1"
  mean nematode size ln(EXT) (ln): 5.95
- MOLECULE: "c1ccc2c(c1)oc1ccccc12"
  mean nematode size ln(EXT) (ln): 5.61
- MOLECULE: "C=C(C)C(N)=O [Methacrylamide]"
  mean nematode size ln(EXT) (ln): 6.01
- MOLECULE: "Cc1cccc(Nc2cc(Cl)nc(SCC(=O)O)n2)c1C"
  mean nematode size ln(EXT) (ln): 5.94
- MOLECULE: "CCN(CC)c1nc(C)cc(OP(=S)(OC)OC)n1"
  mean nematode size ln(EXT) (ln): 6.01
- MOLECULE: "CN1CCN(c2ccccc2/C=C2\\SCCN(c3ccc(Cl)c(Cl)c3)C2=O)CC1"
  mean nematode size ln(EXT) (ln): 4.76
